# procedure-details: yeast display, Sf9 membrane polyspecificity reagent, FACS + sequencing; frameworks hold sequencing errors
property: polyreactivity (PSR sort gate)

Before answering, review these 8 worked examples.
Give the measured polyreactivity (PSR sort gate) of QVQLVESGGGLVQAGGSLRLSCAASGFTFVINDMGWYRQAPVKERELVADITSGGDTYYADSVKGRFTISRVNAKNTVYLQMYRLKPEDTAVYYCAADIYPDWIYLLYGYWGQGTQVNVSS .
low polyreactivity

Give the measured polyreactivity (PSR sort gate) of QVQLVESGGGLVQAGGSLRLSCAASGRTYYHYTMGWYRQAPGKERDLVAAITSGGSTYYADSVKGRFTMSRDNAKITVYVQMNSLKPEDTAVYYCARVRPLYHYSRYDYWGQGTQVTVSS .
high polyreactivity

Give the measured polyreactivity (PSR sort gate) of QVQLVESAGRLVQAGGSLRLSCSASGSIFDWYAMGWYRQEPGKERELVAAISWSGGSTYYADSVKGRFTISRDNAKNTVYLQMNSLKPEDSAVYYCYAVFLYFNDDKFDNWGQGTQVTVSS .
low polyreactivity

Give the measured polyreactivity (PSR sort gate) of QVQLVESGGGLVQAGGSLRLSCAASGSTFARYAMGWYRQAPGKERELVAAISITGSTYYADSVKGRFTISRDNAKNTVYLQMNSLNPEDTAVYYCNVKSKYRYGYWGQGTQVTVSS .
high polyreactivity

Give the measured polyreactivity (PSR sort gate) of QVQLVESGGGLVQAGGSLRLSCVASGNIFVFYLMGWYRQAPGKERELVASISSTGNTYYADSVKGRFTISRDNAKNTVYLQMNSLKPEDTAVYYCAADSHQNVSGWLRWPRMDYWGQGTQVTVSS .
low polyreactivity

Give the measured polyreactivity (PSR sort gate) of QVQLVESGGGLVQAGGSLRLSCAASGLIFGYNAMGWYRQAPGKERELVAGISSGGSTNYADSVKGRFTISRDNAKNTVYLQMNSLKPEDTAVYYCNADGYLAERFVIRLDEYRDYDYWGQGTQVTVSS .
low polyreactivity

Give the measured polyreactivity (PSR sort gate) of QDQLVESGGGLVQAGGSLRLSCAASGSTDYTYDMGWYRQAPGKERELVASITSGGSTNYADSVKGRFTISRDNAKNTVYFQMNSVKPQDTAVYYCAVGTYTIYSGTLYDYKYYWGQGTQVTVSS .
low polyreactivity

Give the measured polyreactivity (PSR sort gate) of QVQLVESGGGLVQAGGSLRLSCAASGQKFEYNAMVWYRQAPRKERELVAVITYTYYADSVKGRFTISRDNAKNTVYLLMNCLKPEATAVYYCAVLYSEEILRNDNGVRFDYWGQGTQVTVSS .
low polyreactivity

Please give polyreactivity (PSR sort gate), item by item, for the list that follows.
1. QVQLVETGGGLVQAGGSLRLICAASGSIFQGNVMGWYRQAPGKERELVAAISSGGRTYYADSVKGRFTISRDNAKNTVYLQMNSLKPEDTAVYYCAASWLTSYAYIMYYWGQGTQVTVSS
2. QVQLVESGGGLVQAGGSLRLSCAASGFTFYQYAMGWSRPAPGKERELVAGISRGGRTYYADSVKGRFTISRDNANNTVYLQMNSLKPEDTAVYYCAARYFYYKNVYAYRTYYYWGQGTQVTVSS

["high polyreactivity", "high polyreactivity"]

Please give polyreactivity (PSR sort gate), item by item, for the list that follows.
1. QVQLVESGGGLVQAGGSLRLSCAASGRTFYWNAMGWYRQAPGKDRDLVASISWSGGRTYYADSVKGRFTISRDNAKNTVYLQMNSLKPEDTAVYYCARRYSGTPSTFYYWGQGTQVNVSS
2. QVQLVESGGGLVQAGGSLRLSCAASGSIFRVYGMGWYRQAPGKERELVAAITWSGGSTYYADSVKGRFTISRDNAKNTVYLQMNSLKPEDTAVYYCAARHKYAFWTAFGNYWGQGTQVTVSS
3. QVQLVESGGGLVQAGGSLRLRCAASGSTFLYYSMGWYREAPGKECELVAAISSTDDSTYADSVKGRFTISRDNAKNTVYLQLNSLKPEDTAVYYCAADVQTLITLGQFDYWGQGTQVTVSS
4. QVQLVESGGGLVQAGGSLRLSCAASGSTFDSNTMGWYRQAPGKERELVAAITVSGGSTHYADSVKGRFTNSRYNAKNTVYLQMNSLKPEDTAVYYCNRRSYGYGAFSGYDYWGQGTQVTVSS
5. QVQLVESGGGLVQAGGSLRLSCAASGFIFYRNAMGWYRQAPGKERELVAAISVDGSTYYADSVKGRFTISRDNAKNTVYLQMNSQKPEDTAVYYCAAEYYSSYYQYVIYGYWGQGTQVTVSS
6. QVQLVESGGGLVQAGGSLRLSCAASGFTFYLYGMGWYRPAPGKERELVAGIDSDGRTNYADSVKGRFTISRDNAMNTVYLQMNSLKPEDTAVYYCAVEWAGGYDYYYWGQGSQVTVSS

1. high polyreactivity
2. high polyreactivity
3. low polyreactivity
4. low polyreactivity
5. low polyreactivity
6. high polyreactivity

Please give polyreactivity (PSR sort gate), item by item, for the list that follows.
1. QVQLVESGGGLVQAGGSLRLSCAASGRIFTSYVMGWYRQAPGKERELVAAITSSGGSTYYADSVKGRFTISRDNAKNTVYLQMNSLKPEDTAVYYCAAATRGSGRRYDYWGQGTQVTVSS
2. QVQLVESGGGLVQAGGSLRLSCAASGRIFGVYAMGWYRQAPGKERELVASITGSGGRTYYADSVKGRFTISRDNAKNTVYLQMNSLKPEDTAVYYCAAKWGTRLAQQKSYGYWGQGTQVTVSS
3. QVQLVESGGVLVQAGGSLRLSCAASGSTLSPYVMGWYRQAPGKERELVATISRSGGRTYYADSVKGRFTISRDNAKNTVYLQMNSLKPEETAVYYCAARTYYWGALIVSYDYWGQGTQVTVSS
4. QVQLVESGGGLVQAGGSLRLSCAASGFTFDDYDMGWYRQAPGKERELVAAISWSGGSTYYADSVKGRFTFSRDNAKNTVYLQMNSLKPEDSAVYYCAAERSYGGFDYWGQGTQVTVSS
5. QVQLEESGGGLVQAGGSLRLTCAASGFTINEYAMGRYIQAPGKERELVAAISRGGTTYYADSVKGRFTISRDNAKNTVYLQMNSLKPEDTAVYYCAAPYFWNTEMDYWGQGTQVSVSS

["high polyreactivity", "high polyreactivity", "low polyreactivity", "low polyreactivity", "low polyreactivity"]

* * *

# procedure-details: yeast display, Sf9 membrane polyspecificity reagent, FACS + sequencing; frameworks hold sequencing errors
property: polyreactivity (PSR sort gate)

Give the measured polyreactivity (PSR sort gate) of QVQLVESGGGLVQAGGSLRLSCAASGSTFDYYAMGWYRQAPGKERELVAAIRWSSGRTYYADSVKGRFTISRDNAKNTVYLQMNSLKPEDTAVYYCAARARGRYKRVALDYWGQGTQVTVSS .
high polyreactivity

Give the measured polyreactivity (PSR sort gate) of QVQHVESGGGLVQAGGSLRLSCAASGGIFVANAMGWYRQAPGKERELVAAISRSGGSTYYADSVKGRFTISRDNAKNTVYLQMNSLKPEDTAVYYCAAKSRRQYTVGLTSDYWGQGTQVTVSS .
low polyreactivity

Give the measured polyreactivity (PSR sort gate) of QVQLVESGGGLVQAGGSLRLSCAASGSIFNYNAMGWYRQAPGKERELVAAISSGGSTNYADSVKGRFTISRDNAKNTVYLQMNSLKPEDTAVYYCAKRGKQYRKMNYWGQGTQVTVSS .
high polyreactivity

Give the measured polyreactivity (PSR sort gate) of QVQLVESGGGLVQAGGSLRLSCAASGSTFGYNAMGWYRQAPGKERELVAAITWTGASTYYADSVKGRFTISRDIAKNTVYLQMNSLKPEDTAVYYCNRVGYQSMNYWGQGTQVTVSS .
low polyreactivity

Give the measured polyreactivity (PSR sort gate) of QVQRVVSGGGLVQAGGSLRLSCAASGSIFQGNAMGWYRQAPGQERELVAAIHRSDGRTYYADSVKGRFTISRDNAKNTVYLQMNSLKPEDTAVYYCKVDVLLVHDYVFYSWMDYWGQGSQVTVSS .
high polyreactivity

Give the measured polyreactivity (PSR sort gate) of QVQLVESGGGLVQAGGSLRLSCAASGSIFYYYTMGWYRQAPGKERELVAAITWSGGRTYYADSVKGRFTISRDNAKNTVYLQMNSLKPEDTAVYYCNVDPYYGGIGDYWGQGTQVTVSS .
high polyreactivity

Please give polyreactivity (PSR sort gate), item by item, for the list that follows.
1. QVQLVESGGGLVQAGGSLRLSCAASGRIFVVYAMGWYRQEPGKERELVAAITGGGRTNYADSVKGRFTISRDNAKNTVYLHMNSLKPEATAVYYCAAGTRSDARRYYYWGQGTQVTVSS
2. QVQVVESGGGLDNAGGSLGLSCAASGSIFYYNAMGWYRQAPGKERELVAAISSSGGSTYYADSVKGRFTISRDNAKNTVYLQMNSLKPEDTAVYYCAAKLRHWAHHTKYDYWGQGTQVTVSS
3. QVQLVESGGGLVQAGGSLRLSCAASGRIFYRNAMGRYRQAPGKERELVAAISSSGGRTYYADSVKGRFTISRDNAKITVYFQMNSLKPEDTAVYYCNRAYYLDSGYDSWGQGTQVTVSS
4. QVQLVESGGGLVQAGGSLRLSCAASGSIFLTYAMGWYRQAPGKERELVAAITDSDGSTSYADSVKGRFTISRDNAKNTVYLQMNSLKPEDTAVYYCAKDFPGRRPPKDPSAFYYWGQGTQVTVSS
5. QVQLVESAGGLVQAGGSLSLSCAASGRTFSYYAMGWYRHARGKERELVAAISRRGGSTYYADSVKGRLTISRDNAKNTVYLQMISLKPEDTAVDYCNARGRSTVGGGFYYWGLGTQVTVSS

low polyreactivity
low polyreactivity
high polyreactivity
low polyreactivity
high polyreactivity
